Listed here: compounds with reported IC50 for cPLA2 (Homo sapiens).
Hi! Could you send only the number? It should be in µM, unit omitted.

stdin: Specify IC50 for `O=C(O)CCc1ccc(S(=O)(=O)CCn2cc(C(c3ccccc3)c3ccccc3)c3ccc(Cl)cc32)cc1` , system cPLA2 (Homo sapiens).
stdout: 4

stdin: Fetch value of IC50 on cPLA2 (Homo sapiens) for `Cc1c(C(c2ccccc2)c2ccccc2)c2cc(Cl)ccc2n1CCOc1ccc(CCC(=O)O)cc1` .
Sequence (P47712 whole entry, species assumed): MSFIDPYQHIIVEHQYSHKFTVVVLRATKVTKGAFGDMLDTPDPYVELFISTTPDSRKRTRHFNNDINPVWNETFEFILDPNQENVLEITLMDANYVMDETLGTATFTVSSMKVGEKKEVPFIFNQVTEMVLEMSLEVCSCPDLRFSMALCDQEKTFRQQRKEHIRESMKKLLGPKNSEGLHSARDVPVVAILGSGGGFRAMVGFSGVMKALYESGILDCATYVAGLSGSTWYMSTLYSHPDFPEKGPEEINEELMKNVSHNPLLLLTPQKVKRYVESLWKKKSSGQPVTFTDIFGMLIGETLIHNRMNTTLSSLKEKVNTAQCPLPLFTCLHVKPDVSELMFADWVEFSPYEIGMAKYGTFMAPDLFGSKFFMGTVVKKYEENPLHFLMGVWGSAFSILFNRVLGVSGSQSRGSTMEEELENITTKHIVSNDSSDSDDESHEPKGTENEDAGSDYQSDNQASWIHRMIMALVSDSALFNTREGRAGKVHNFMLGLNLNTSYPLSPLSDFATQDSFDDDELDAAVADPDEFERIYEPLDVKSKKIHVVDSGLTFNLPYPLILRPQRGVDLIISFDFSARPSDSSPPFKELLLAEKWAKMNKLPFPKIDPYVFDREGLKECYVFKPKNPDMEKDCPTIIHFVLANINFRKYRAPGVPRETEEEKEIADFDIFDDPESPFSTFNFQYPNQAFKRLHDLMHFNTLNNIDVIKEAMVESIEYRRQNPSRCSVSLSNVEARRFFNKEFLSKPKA
stdout: 1.2

stdin: Specify IC50 for `O=C(O)c1ccc(S(=O)(=O)CCn2cc(C(c3ccccc3)c3ccccc3)c3ccc(Cl)cc32)cc1` , system cPLA2 (Homo sapiens).
stdout: 9
